Hello, the source for this data is ChEMBL document CHEMBL1201862, in case you need it.

- Test system: HOP-18
- TEST_DETAILS: NCI tumour cell line growth inhibition, 48 h
Calls of active or inactive are those of the source. Rule as the data show it: active = GI50 up to about 1.1 µM and inactive = higher.
Select the correct class. Options are active, inactive and nothing else.

Solved entries (count: 8):
- Nc1ccccc1N: inactive
- O=C(CC(=O)c1ccccc1)C(=O)NC12CC3CC(CC(C3)C1)C2: inactive
- O=C1C=CC(=O)c2c(O)ccc(O)c21: inactive
- FC(F)(F)C1=NC(=NNc2nnc(-c3ccccc3)c(-c3ccccc3)n2)N=C(C(F)(F)F)C1: inactive
- COc1ccc(C2CCc3cc4c(cc3/C2=N/OC(C)=O)OCO4)cc1OC (stereo not drawn): inactive
- Cc1ccccc1C1=C(C(=O)Nc2ccc(Cl)c(Cl)c2)NC(=S)NC1N (stereo not drawn): inactive
- CCCCC1(OC(=O)CCC(=O)O)CCC2(CCC(C)C(C/C=C(C)/C=C/C(O)C(C)/C=C/C(=O)O)O2)OC1CC/C(C)=C/C(=O)O (stereo not drawn): inactive
- Cn1c(=O)c(C(c2ccc([N+](=O)[O-])cc2)c2c(O)c3ccccc3n(C)c2=O)cc2ccccc21 (stereo not drawn): inactive

IN: Please state the recorded outcome for this compound: CCSC1(SCC)CC(Cc2ccc(OC)cc2)N(/C=N/C(C)(C)C)C1 (stereo not drawn)
OUT: inactive

IN: One more compound: CC[P+]1(c2ccccc2)CCCCC1
OUT: inactive

IN: One more compound: Cc1c(N)nc([C@H](CC(N)=O)NC[C@H](N)C(N)=O)nc1C(=O)N[C@H](C(=O)N[C@H](C)[C@@H](O)[C@H](C)C(=O)N[C@H](C(=O)NCCc1nc(-c2nc(C(=O)NCCC[S+](C)C)cs2)cs1)[C@@H](C)O)C(OC1OC(CO)C(O)C(O)C1OC1OC(CO)C(O)C(OC(N)=O)C1O)c1c[nH]cn1 (stereo partly drawn)
OUT: inactive
